target: ΔF508-CFTR (Homo sapiens, UniProt P13569, DEL508-508); construct: expressed in transfected cells; test: Membrane potential optical assay (FRET/VIPR), identification of correction compounds; format: cell-based; details: relative efficacy
Sequence (P13569 with tags, fused parts or gaps DEL508-508): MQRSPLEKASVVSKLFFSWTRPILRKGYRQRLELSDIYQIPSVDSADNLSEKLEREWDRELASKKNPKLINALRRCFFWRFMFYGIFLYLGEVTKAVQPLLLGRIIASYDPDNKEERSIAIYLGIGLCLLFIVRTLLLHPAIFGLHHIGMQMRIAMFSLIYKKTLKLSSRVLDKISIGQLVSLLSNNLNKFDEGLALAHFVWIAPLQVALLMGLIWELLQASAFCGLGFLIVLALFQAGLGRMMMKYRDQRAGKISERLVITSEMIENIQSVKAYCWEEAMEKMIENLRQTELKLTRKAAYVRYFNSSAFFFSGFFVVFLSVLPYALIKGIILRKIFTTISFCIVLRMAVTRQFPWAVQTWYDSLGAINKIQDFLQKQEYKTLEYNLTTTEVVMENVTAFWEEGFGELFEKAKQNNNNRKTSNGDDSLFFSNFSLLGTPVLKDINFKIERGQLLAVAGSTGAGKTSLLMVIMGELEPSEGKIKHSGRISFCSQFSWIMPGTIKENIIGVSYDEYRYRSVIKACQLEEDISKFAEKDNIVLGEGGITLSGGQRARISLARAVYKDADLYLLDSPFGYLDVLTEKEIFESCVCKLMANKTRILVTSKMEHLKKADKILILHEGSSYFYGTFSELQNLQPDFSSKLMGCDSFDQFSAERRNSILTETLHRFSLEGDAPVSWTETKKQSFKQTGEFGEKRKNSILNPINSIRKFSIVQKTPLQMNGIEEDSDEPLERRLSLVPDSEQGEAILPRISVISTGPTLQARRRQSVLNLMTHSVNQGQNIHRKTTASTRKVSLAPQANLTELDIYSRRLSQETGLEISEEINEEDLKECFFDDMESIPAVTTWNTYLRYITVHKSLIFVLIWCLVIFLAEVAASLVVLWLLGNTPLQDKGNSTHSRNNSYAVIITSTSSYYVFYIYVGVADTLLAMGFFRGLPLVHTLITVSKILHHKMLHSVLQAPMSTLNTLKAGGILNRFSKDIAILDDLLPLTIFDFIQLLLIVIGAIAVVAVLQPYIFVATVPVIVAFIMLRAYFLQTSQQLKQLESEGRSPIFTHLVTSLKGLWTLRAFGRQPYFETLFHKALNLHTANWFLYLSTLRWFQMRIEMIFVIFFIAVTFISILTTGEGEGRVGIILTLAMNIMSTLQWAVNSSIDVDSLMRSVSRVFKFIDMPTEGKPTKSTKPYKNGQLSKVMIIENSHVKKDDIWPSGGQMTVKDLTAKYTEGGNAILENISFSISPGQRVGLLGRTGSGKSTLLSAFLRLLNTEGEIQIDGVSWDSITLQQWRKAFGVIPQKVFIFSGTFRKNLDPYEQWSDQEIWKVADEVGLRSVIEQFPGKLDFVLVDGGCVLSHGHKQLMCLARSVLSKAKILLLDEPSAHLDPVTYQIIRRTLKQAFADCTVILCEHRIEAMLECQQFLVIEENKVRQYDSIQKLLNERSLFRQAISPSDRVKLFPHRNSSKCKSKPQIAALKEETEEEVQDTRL
MEASURED ENDPOINT: Emax

Kindly note the recorded Emax for CC(c1nc2ccccc2c(=O)n1C)N1CCN(S(=O)(=O)c2ccc(S(C)(=O)=O)cc2)CC1 (stereo not shown) , which is < 25%

Kindly note the recorded Emax for COc1ccc(S(=O)(=O)NCCN(C(C)c2nc3ccccc3c(=O)n2C)S(=O)(=O)c2ccc(OC)cc2)cc1 (stereo not shown) , which is 25 to 100%

Kindly note the recorded Emax for CC(c1nc2ccccc2c(=O)n1C)N1CCN(S(=O)(=O)c2ccc(Br)s2)CC1 (stereo not shown) , which is 25 to 100%

Kindly note the recorded Emax for CCCn1c(C(CC)N2CCN(S(=O)(=O)c3ccc(OC)cc3)CC2)nc2ccccc2c1=O (stereo not shown) , which is 25 to 100%

Kindly note the recorded Emax for CC(NC1CCN(S(=O)(=O)c2ccc(Cl)cc2)CC1)c1nc2ccccc2c(=O)n1C (stereo not shown) , which is 25 to 100%

Kindly note the recorded Emax for COc1ccc(S(=O)(=O)N2CCN(C(C)c3nc(N4CC[C@@H](NC(C)=O)C4)c4ccccc4n3)CC2)cc1 (stereo partly shown) , which is 25 to 100%

Kindly note the recorded Emax for COc1ccc(S(=O)(=O)N2CCN(C(C)c3nc(N4CCC(C)CC4)c4cc(F)ccc4n3)CC2)cc1 (stereo not shown) , which is > 100%
